A set of molecules tested on UniProt P04585, with measured IC50:

Prompt: Specify reported IC50 for the molecule shown: CCc1ccc(S(=O)(=O)N[C@@H](Cc2ccccc2)[C@H](O)CCc2ccccc2C(=O)NC(C)(C)C)cc1 [Example 000874]
Completion: 100 to 10000 nM

Prompt: Supply reported IC50 belonging to this molecule: CC(C)(C)NC(=O)c1ccccc1CC[C@@H](O)[C@H](Cc1ccccc1)NC(=O)Cc1ccccc1 [Example 00762]
Completion: 100 to 10000 nM

Prompt: State its IC50 for this molecule: C=CCc1cccc(C)c1OCC(=O)N[C@@H](Cc1ccccc1)[C@H](O)CCc1ccccc1C(=O)NC(C)(C)C [Example 001206]
Completion: 100 to 10000 nM

Prompt: Give recorded IC50. Cc1ccccc1S(=O)(=O)NC(=O)N[C@@H](Cc1ccccc1)[C@H](O)CCc1ccccc1C(=O)NC(C)(C)C [Example 001014]
Completion: 100 to 10000 nM

Prompt: Provide one value: measured IC50 of CC1CCCC(C)C1OCC(=O)NC(Cc1ccccc1)C(O)CCc1ccccc1C(=O)NC(C)(C)C (stereo not shown) [Example 001230]
Completion: 100 to 10000 nM

Prompt: Name the recorded IC50 of the item CC(C)(C)NC(=O)c1ccccc1CC[C@@H](O)[C@H](Cc1ccccc1)NC(=O)c1ccc(Cl)cc1Cl [Example 000902] in your answer.
Completion: 100 to 10000 nM

Prompt: Return reported IC50. Input molecule: Cc1ccc(CC[C@@H](O)[C@H](Cc2ccccc2)NC(=O)COc2c(C)cccc2C)c(C(=O)NC(C)(C)C)c1 [Example 001237]
Completion: < 100 nM
